target: GABA-A receptor; alpha-1/beta-2/gamma-2 (Homo sapiens) (UniProt P14867+P47870+P18507); experiment: Positive allosteric modulation of GABAA receptor alpha1beta2gamma2 (unknown origin) expressed in mouse LTK cells assessed as potentiation of GABA-mediated increase in channel current under holding potential at -80 mV at 0.01 to 10 uM preincubated for 30 secs followed by GABA stimulation for 2 secs by automated patch clamp assay relative to GABA; format: cell-based
OBSERVATION_TYPE: Emax (%)
Report the value in % with no unit label.

Reference set, count: 6
| QUERY_SMILES | OBSERVATION_TYPE | TEST_RESULT |
| --- | --- | --- |
| C[C@@]1(O)CC[C@H]2[C@H](CC[C@@H]3[C@@H]2CC[C@]2(C)[C@@H](C(=O)Cn4cc(C(F)(F)F)cn4)CC[C@@H]32)C1 | Emax | 339 |
| Cc1cnn(CC(=O)[C@H]2CC[C@H]3[C@@H]4CC[C@@H]5C[C@](C)(O)CC[C@@H]5[C@H]4CC[C@]23C)c1 | Emax | 427 |
| COc1cnn(CC(=O)[C@H]2CC[C@H]3[C@@H]4CC[C@@H]5C[C@](C)(O)CC[C@@H]5[C@H]4CC[C@]23C)c1 | Emax | 434 |
| C[C@@]1(O)CC[C@H]2[C@H](CC[C@@H]3[C@@H]2CC[C@]2(C)[C@@H](C(=O)Cn4cc(Cl)cn4)CC[C@@H]32)C1 | Emax | 642 |
| Cc1cnnn1CC(=O)[C@H]1CC[C@H]2[C@@H]3CC[C@@H]4C[C@](C)(O)CC[C@@H]4[C@H]3CC[C@]12C | Emax | 1120 |
| C[C@@]1(O)CC[C@H]2[C@H](CC[C@@H]3[C@@H]2CC[C@]2(C)[C@@H](C(=O)Cn4ccc(C#N)n4)CC[C@@H]32)C1 | Emax | 725 |

Pending compound:
C[C@@]1(O)CC[C@H]2[C@H](CC[C@@H]3[C@@H]2CC[C@]2(C)[C@@H](C(=O)Cn4nccn4)CC[C@@H]32)C1 has a reported Emax of 663
